- assay method text: qHTS Assay for Lipid Storage Modulators (AID 1519)
- condition context: Drosophila S3 cells, BODIPY lipid droplet/cell ratio, laser cytometry; measured here: lipid channel max response; cells loaded with oleic acid
Results filed as inconclusive are left out.
Kindly supply the reported max response values for the records listed here.
Respond with a number, then the unit of measure.

Example results:
compound | property label | recorded value
CC(=O)[C@]1(O)CCC2C3C=C(Cl)C4=CC(=O)C5CC5[C@@]4(C)C3CC[C@]21C (stereo partly drawn) | max response | 14.3%
CC1=C(CCC(=O)O)c2cc3nc(cc4[nH]c(cc5[nH]c(cc1n2)c(C)c5C(C)O)c(C)c4C(C)O)C(C)=C3CCC(=O)O (stereo not drawn) | max response | 18.6%

For each of the items listed, what is its max response?
1. NC(=O)N/N=C\c1ccc([N+](=O)[O-])o1
2. CCCCCc1c2c(cc(O)c1C(=O)O)OC(=O)c1c(cc(OC)cc1C(=O)CCCC)O2
3. CN1CCCC1c1cccnc1 (stereo not drawn)
4. CC[N+]1(C)[C@@H]2CC[C@H]1CC(OC(=O)[C@H]1CC[C@@](C(=O)OC3C[C@H]4CC[C@@H](C3)[N+]4(C)CC)(c3ccccc3)c3ccccc31)C2 (stereo partly drawn)

1. -1.91%
2. 21.9%
3. 23.7%
4. -14.8%

For each listed entry, give its max response.
1. C[C@@H]1O[C@H](O[C@@H]2\C=C/C=C\C=C/C=C\C[C@H](C)OC(=O)/C=C\[C@H]3O[C@@H]3C[C@H](O)C[C@]3(O)C[C@@H](O)[C@@H](C(=O)O)[C@H](C2)O3)[C@@H](O)[C@H](N)[C@@H]1O (stereo in doubt)
2. CCCCCCCCCc1ccc(OCCOCCOCCOCCOCCOCCOCCOCCOCCO)cc1

1. 0.155%
2. -5.26%
